Organism: Oryctolagus cuniculus
Measured Delta IOP, listed per entry for reference.
Quick note: give the figure in mmHg, leave out the unit.

Use these answered entries as a reference point.
1) NS(=O)(=O)c1cc2c(s1)S(=O)(=O)C(CCN1CCOCC1)CN2 (centres undefined)    5
2) COCCOCCN(CCOC)CCC1CNc2cc(S(N)(=O)=O)sc2S1(=O)=O (centres undefined)    6
3) COCCN(CCOC)CCC1CNc2cc(S(N)(=O)=O)sc2S1(=O)=O (centres undefined)    4

Query string: Give its Delta IOP value. Item: CC(C)CNCCC1CNc2cc(S(N)(=O)=O)sc2S1(=O)=O (centres undefined)
Result string: -4.5

----------
Test: The pKa value in 30% EtOH/H2O
Format: physicochemical
So basically: pKa at 8 or higher? That is rule met. Lower than 8? That is rule not met.

1) CC(C)CNC(=O)CC1Sc2sc(S(N)(=O)=O)cc2NC1=O (stereo unspecified)    rule not met

Okay, next one:
Query string: Record NS(=O)(=O)c1cc2c(s1)S(=O)(=O)C(CCO)CN2 (stereo unspecified) ; criterion: pKa no lower than 8. Met?
Result string: rule met

----------
The following are reported pIC50 results, target or system Carbonic anhydrase 2 (Homo sapiens, UniProt P00918).
Just so you know, pIC50 here is -log10 of the concentration in molar units; reply with that number alone.

Past entries and their recorded results:
1) COCCOCCN(CCOC)C(=O)CC1C(=O)Nc2cc(S(N)(=O)=O)sc2S1(=O)=O (centres undefined)    8.66
2) NS(=O)(=O)c1cc2c(s1)S(=O)(=O)C1(CC1)CN2    8.70
3) NS(=O)(=O)c1cc2c(s1)S(=O)(=O)CC(=O)N2    8.43

Now, please, on to the next molecule.
Query string: Query for Carbonic anhydrase 2 (Homo sapiens, UniProt P00918): what pIC50 does the record show for COCCOCCN(CCOC)CCC1CNc2cc(S(N)(=O)=O)sc2S1(=O)=O (centres undefined) ?
Result string: 8.84

----------
Assay: physchem
Settings: pH 5.2 buffer, pH 5.2, Solubility
solubility values by entry
Numeric answer only, unit µg/mL assumed.

1) NS(=O)(=O)c1cc2c(s1)S(=O)(=O)C(CCN1CCOCC1)CN2 (stereo not drawn)    2100

Field: next compound
Query string: Requested field: solubility. Item: NS(=O)(=O)c1cc2c(s1)SC(CCO)CN2 (stereo not drawn)
Result string: 640

----------
Property: pKa; scope: individual molecules
Experiment: The pKa value in 30% EtOH/H2O
Format: physicochemical
Reply: number alone, nothing else.

1. CC(C)CNCCC1CNc2cc(S(N)(=O)=O)sc2S1(=O)=O (centres undefined)    8.18
2. NS(=O)(=O)c1cc2c(s1)S(=O)(=O)C1(CC1)CN2    8.29
3. COCCN(CCOC)CCC1CNc2cc(S(N)(=O)=O)sc2S1(=O)=O (centres undefined)    6.4

Continue with the molecule presented below.
Query string: Entry under review: NS(=O)(=O)c1cc2c(s1)S(=O)(=O)C(CCN1CCOCC1)CN2 (centres undefined) . Reported pKa?
Result string: 3.23

Every entry's value here was drawn from ChEMBL document CHEMBL1127476.
